B1: Segment polarity protein dishevelled homolog DVL-3, residues 2 to 81; numbered along this chain, Q92997 (parent)
chain: GETKIIYHLDGQETPYLVKLPLPAERVTLADFKGVLQRPSYKFFFKSMDDDFGVVKEEISDDNAKLPCFNGRVVSWLVSA

- Variants of: B1
- Measurement Description: abundance fitness (aPCA) (normalised: wild type 0, dead -1); higher = more abundant; growth selection in yeast, the domain comes from the species named
- Reported Conditions: Homo sapiens
Hi there, I'd appreciate the recorded abundance fitness for every entry that follows.

   variant_descriptor  result
0                S40L  -0.258
1                K33C  -0.589
2                D49G  -0.046
3                L77E  -0.915
4                S79T  -0.179

# per-item lookup of abundance fitness; items listed below
1. K33R
2. S75G
3. G71N
4. I59T
5. K65Y
6. R72I

Reply text:
-0.693
-0.221
-0.351
-0.811
0.093
0.269

# per-item lookup of abundance fitness; items listed below
1. L66S
2. A30W

Reply text:
1. -0.747
2. -0.517

# per-item lookup of abundance fitness; items listed below
1. E57A
2. L66R
3. F32N
4. F43H

Reply text:
[-0.121, -0.706, -1.28, -0.799]
